Assay: Solubility of compound in water
Type: physicochemical
ENDPOINT NAME: solubility (µg/mL)
Lab book: enter the figure in µg/mL, no units written.

[[record]]
smiles_record = "O=c1cc(-c2ccc(Cl)cc2)[nH]c2nc(-c3ccccc3)nn12"
endpoint_name = "solubility"
unit_name = "µg/mL"
test_value = 14.3


Shifting focus to the compound that follows.
## Task Which solubility value is on record for Cc1ccc(-c2nc3[nH]c(-c4ccccc4)cc(=O)n3n2)cc1 ?
## Result 14.3

---

Tested on: Mus musculus
Assay: Anticonvulsant activity in ip dosed Kunming mouse assessed as reduction in ScPTZ-induced seizure administered before 30 mins of ScPTZ stimulation
Assay type: functional
Details: 0.5 h
ENDPOINT NAME: ED50 (mg/kg)
Lab book: enter the figure in mg/kg, no units written.

[[record]]
smiles_record = "Cc1ccc(-c2nc3[nH]c(Cc4ccccc4)cc(=O)n3n2)cc1"
endpoint_name = "ED50"
unit_name = "mg/kg"
test_value = 41


## Task Which ED50 value is on record for O=c1cc(Cc2ccc(Cl)cc2)[nH]c2nc(-c3ccccc3)nn12 ?
## Result 31.8

## Task Another compound: O=c1cc(-c2ccccc2)[nH]c2nc(Cc3ccc(F)cc3)nn12
## Result 71.6

## Task Another compound: O=c1cc(-c2ccccc2)[nH]c2nc(Cc3ccc(Cl)cc3)nn12
## Result 61.1

## Task Another compound: Cc1ccc(Cc2nc3[nH]c(-c4ccccc4)cc(=O)n3n2)cc1
## Result 65.8

---

System: Mus musculus
Assay: Anticonvulsant activity in Kunming mouse assessed as reduction in ScPTZ-induced seizure at 30 mg/kg, ip administered before 30 mins of ScPTZ stimulation
Type: functional, organism-based
Calls of active or inactive are those of the source. The calls are words filed in the database; no cut-off is given here.
Hi! Could you answer with just one of these? TRUE for active, FALSE for inactive

Please review the following examples before continuing.
[[record]]
smiles_record = "Cc1ccc(Cc2nc3[nH]c(Cc4ccccc4)cc(=O)n3n2)cc1"
discrete_label = "TRUE"

[[record]]
smiles_record = "Cc1ccc(Cc2cc(=O)n3nc(-c4ccccc4)nc3[nH]2)cc1"
discrete_label = "FALSE"

[[record]]
smiles_record = "CCCCc1nc2[nH]c(-c3ccccc3)cc(=O)n2n1"
discrete_label = "FALSE"

[[record]]
smiles_record = "Cc1ccc(-c2nc3[nH]c(Cc4ccc(F)cc4)cc(=O)n3n2)cc1"
discrete_label = "FALSE"

[[record]]
smiles_record = "CCCCCCc1nc2[nH]c(-c3ccc(Cl)cc3)cc(=O)n2n1"
discrete_label = "TRUE"


## Task Status in this test for O=c1cc(-c2ccccc2)[nH]c2nc(Cc3ccc(F)cc3)nn12 ?
## Result TRUE
